Target: T1, biotin-peptide YVNFNFTDFY (human)
T1 peptide: Biotin-YVNFNFTDFY
Assay: ELISA biotin-peptide; scFv 10 ug/mL; repI
Where no end group is shown, it is not given here. The star is where a group is joined. Biotin = O=C1N[C@H]2[C@H](CS[C@H]2CCCCC(=O)*)N1
Listed next: entries and their corresponding OD450.
Measured Property: OD450 (OD)

1. Comparative antibody 3 (Comp-3) scFv, SR_92R (Somovilla-Crespo et al. 2018), His-tagged (scFv) scFv: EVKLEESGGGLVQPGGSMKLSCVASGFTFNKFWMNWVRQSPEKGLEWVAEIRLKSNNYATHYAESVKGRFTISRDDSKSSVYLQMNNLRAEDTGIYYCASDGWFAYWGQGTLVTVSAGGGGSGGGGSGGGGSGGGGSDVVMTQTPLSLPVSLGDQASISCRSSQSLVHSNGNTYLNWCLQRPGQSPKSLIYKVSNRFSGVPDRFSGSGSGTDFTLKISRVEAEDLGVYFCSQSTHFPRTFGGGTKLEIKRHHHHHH	0.1
2. Comparative antibody 1 (Comp-1) scFv, SEQ ID NO: 10 from WO2023/037125 A1, His-tagged (scFv) scFv: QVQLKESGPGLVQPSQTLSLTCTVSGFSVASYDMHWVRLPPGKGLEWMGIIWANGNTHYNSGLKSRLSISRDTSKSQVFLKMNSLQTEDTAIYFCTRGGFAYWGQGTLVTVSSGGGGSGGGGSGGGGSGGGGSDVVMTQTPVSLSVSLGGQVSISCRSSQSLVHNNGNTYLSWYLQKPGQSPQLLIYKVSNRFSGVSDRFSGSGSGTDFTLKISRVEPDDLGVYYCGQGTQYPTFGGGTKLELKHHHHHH	0.1
3. CCR9_HUM2 scFv (humanized anti-CCR9 scFv, SEQ ID NO: 17 with C-terminal 6xHis tag) (scFv) scFv: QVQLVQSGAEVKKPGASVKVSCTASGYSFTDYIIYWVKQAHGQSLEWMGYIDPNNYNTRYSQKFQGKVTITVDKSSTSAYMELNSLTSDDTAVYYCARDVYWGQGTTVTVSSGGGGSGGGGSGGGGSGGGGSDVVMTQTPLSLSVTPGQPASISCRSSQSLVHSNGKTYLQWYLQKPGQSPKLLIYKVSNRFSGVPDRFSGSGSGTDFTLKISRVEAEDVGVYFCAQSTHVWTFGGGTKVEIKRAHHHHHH	0.17
4. Comparative antibody 2 (Comp-2) scFv, 243LO326 (VH SEQ ID NO: 51 and VL SEQ ID NO: 52 of WO 2022/195028 A2), His-tagged (scFv) scFv: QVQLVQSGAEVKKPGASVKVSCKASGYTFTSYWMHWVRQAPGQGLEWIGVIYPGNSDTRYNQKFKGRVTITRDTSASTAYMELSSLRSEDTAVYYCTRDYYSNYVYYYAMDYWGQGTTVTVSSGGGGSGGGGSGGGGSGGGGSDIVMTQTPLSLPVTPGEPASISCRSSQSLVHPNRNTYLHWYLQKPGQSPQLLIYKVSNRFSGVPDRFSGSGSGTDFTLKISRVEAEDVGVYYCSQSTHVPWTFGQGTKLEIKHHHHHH	1.93
